- target_system: human NaV 1.8 (Homo sapiens, UniProt Q9Y5Y9)
- Sequence (Q9Y5Y9 126-399 limits assumed): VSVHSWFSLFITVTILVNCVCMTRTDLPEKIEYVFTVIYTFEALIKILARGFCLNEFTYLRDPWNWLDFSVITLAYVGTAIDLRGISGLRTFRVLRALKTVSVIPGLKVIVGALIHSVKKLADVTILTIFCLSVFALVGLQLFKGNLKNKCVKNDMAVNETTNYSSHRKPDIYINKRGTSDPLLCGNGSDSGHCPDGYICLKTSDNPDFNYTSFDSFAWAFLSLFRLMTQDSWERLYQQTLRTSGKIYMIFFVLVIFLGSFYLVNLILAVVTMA
- Sequence (Q9Y5Y9 660-890 limits assumed): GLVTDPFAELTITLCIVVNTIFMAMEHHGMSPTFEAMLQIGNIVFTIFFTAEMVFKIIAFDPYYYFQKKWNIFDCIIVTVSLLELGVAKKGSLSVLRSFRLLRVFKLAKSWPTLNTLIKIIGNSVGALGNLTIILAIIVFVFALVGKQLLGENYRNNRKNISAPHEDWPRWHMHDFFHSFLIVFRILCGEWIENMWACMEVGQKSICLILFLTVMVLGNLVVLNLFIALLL
- Sequence (Q9Y5Y9 1148-1722 limits assumed): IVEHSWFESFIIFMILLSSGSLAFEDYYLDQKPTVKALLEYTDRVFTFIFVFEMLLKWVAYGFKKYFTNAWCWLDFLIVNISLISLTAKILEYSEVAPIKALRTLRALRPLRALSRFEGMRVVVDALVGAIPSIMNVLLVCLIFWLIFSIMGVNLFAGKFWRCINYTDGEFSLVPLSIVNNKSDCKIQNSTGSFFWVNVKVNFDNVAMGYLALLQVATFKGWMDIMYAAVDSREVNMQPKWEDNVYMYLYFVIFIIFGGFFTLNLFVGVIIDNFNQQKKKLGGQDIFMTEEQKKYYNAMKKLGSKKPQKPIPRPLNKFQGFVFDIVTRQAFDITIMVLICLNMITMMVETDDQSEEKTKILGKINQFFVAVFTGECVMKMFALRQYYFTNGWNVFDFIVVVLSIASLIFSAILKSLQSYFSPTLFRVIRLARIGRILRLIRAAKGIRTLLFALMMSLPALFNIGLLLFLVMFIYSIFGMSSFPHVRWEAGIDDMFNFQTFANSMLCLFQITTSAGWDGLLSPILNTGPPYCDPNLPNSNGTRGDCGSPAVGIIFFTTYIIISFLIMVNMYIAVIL
- protocol: E-VIPR assay detecting and measuring NaV inhibition properties
- Assay type: cell-based
- experimental_parameters: HEK cells expressing truncated human NaV 1.8; in the presence of human serum (compound numbers followed by *); read-out: IC50 in the E-VIPR Assay, performed in the presence of human serum
pIC50: −log10 of the molar value.
measured_quantity: pIC50

Batch lookup, pIC50 per entry.
1. CCc1c(F)ccc([C@H]2C[C@@](C)(C(F)(F)F)O[C@@H]2C(=O)Nc2cn(S(C)(=O)=O)nc2C)c1OC (stereo in doubt)
2. CCc1c(F)ccc([C@@H]2C[C@](C)(C(F)(F)F)O[C@H]2C(=O)Nc2cn(S(C)(=O)=O)nc2C)c1OC (stereo in doubt)
3. COc1c([C@H]2[C@H](C(=O)Nc3cc(C(O)CO)ncc3F)O[C@@](C)(C(F)(F)F)[C@H]2C)ccc(F)c1C (single isomer, unassigned)
4. C[C@@H]1[C@H](c2ccc(F)c(F)c2OC(F)F)[C@@H](C(=O)Nc2ccnc(S(C)(=O)=O)c2)O[C@]1(C)C(F)(F)F (single isomer, unassigned)
5. COc1cc(F)ccc1[C@@H]1C[C@](C)(C(F)(F)F)O[C@H]1C(=O)Nc1ccnc(S(C)(=O)=O)c1 (stereo in doubt)
6. COc1c([C@H]2C[C@@](C)(C(F)(F)F)O[C@@H]2C(=O)Nc2ccnc([C@H](O)CO)c2)ccc(F)c1C (single isomer, unassigned)

**A:**
≤ 6.00
6.00 to 7.00
7.00 to 8.00
≤ 6.00
6.00 to 7.00
≤ 6.00

Batch lookup, pIC50 per entry.
1. COc1c(C2C(C(=O)Nc3cc(CO)ncc3C)OC(C)(C(F)(F)F)C2C)ccc(F)c1F (centres unmarked)
2. COc1c([C@@H]2[C@@H](C(=O)Nc3cc[n+]([O-])c(C(O)CO)c3)O[C@](C)(C(F)(F)F)[C@@H]2C)ccc(F)c1C (relative stereo)
3. COc1c([C@H]2[C@H](C(=O)Nc3cnnc(C(O)CO)c3)O[C@@](C)(C(F)(F)F)[C@H]2C)ccc(F)c1F (single isomer, unassigned)
4. C[C@@H]1[C@H](c2ccc(F)c(F)c2OC(F)F)[C@@H](C(=O)Nc2ccc(C(N)=O)nc2)O[C@]1(C)C(F)(F)F (single isomer, unassigned)
5. COc1c([C@@H]2C[C@](C)(C(F)(F)F)O[C@H]2C(=O)Nc2ccnc([C@H](O)[C@@H](C)O)c2)ccc(F)c1F (stereo in doubt)
6. COc1c(C2CC(C)(C(F)(F)F)OC2C(=O)Nc2ccnc(C(O)C(C)O)c2)ccc(F)c1F (single isomer, unassigned) [Compound 697]
7. CCOc1c(C2CC(C)(C(F)(F)F)OC2C(=O)Nc2ccn3c(OC)nnc3c2)ccc(F)c1F (centres unmarked)

**A:**
1: 7.00 to 8.00; 2: ≤ 6.00; 3: 7.00 to 8.00; 4: ≤ 6.00; 5: 7.00 to 8.00; 6: ≤ 6.00; 7: 6.00 to 7.00

Batch lookup, pIC50 per entry.
1. COc1c([C@@H]2C[C@](C)(C(F)(F)F)O[C@H]2C(=O)Nc2cc(C(O)CO)ncc2F)ccc(F)c1F (single isomer, unassigned)
2. COc1c(C2C(C(=O)Nc3ccn(C)c(=O)c3)OC(C)(C(F)(F)F)C2C)ccc(F)c1F (single isomer, unassigned)
3. COc1c([C@H]2[C@H](C(=O)Nc3ccnc(C(CO)OC)c3)O[C@@](C)(C(F)(F)F)[C@H]2C)ccc(F)c1F (single isomer, unassigned)
4. COc1c([C@H]2C[C@@](C)(C(F)(F)F)O[C@@H]2C(=O)Nc2ccnc(C(O)CO)c2)ccc(F)c1F (single isomer, unassigned)

**A:**
1. 6.00 to 7.00
2. ≤ 6.00
3. > 8.00
4. ≤ 6.00

Batch lookup, pIC50 per entry.
1. COc1c([C@H]2[C@H](C(=O)Nc3ccc4nc[nH]c4c3)O[C@@](C)(C(F)(F)F)[C@H]2C)ccc(F)c1F
2. COc1c(C2CC(C)(C(F)(F)F)OC2C(=O)Nc2ccnc(C(O)C(C)O)c2)ccc(F)c1F (single isomer, unassigned) [Compound 694]
3. COc1c([C@H]2C[C@@](C)(C(F)(F)F)O[C@@H]2C(=O)Nc2ccnc([C@@H](O)[C@H](C)O)c2)ccc(F)c1F (stereo in doubt)
4. CNCc1cc(NC(=O)C2OC(C)(C(F)(F)F)C(C)C2c2ccc(F)c(F)c2OC)c(F)cn1 (centres unmarked)
5. CCOc1c([C@H]2C[C@@](C)(C(F)(F)F)O[C@@H]2C(=O)Nc2ccnc(C(O)CO)c2)ccc(F)c1F (single isomer, unassigned)
6. C[C@@H]1[C@H](c2ccc(F)c(F)c2OC(F)F)[C@@H](C(=O)Nc2ccnc(C(C)(C)O)c2)O[C@]1(C)C(F)(F)F (single isomer, unassigned)

**A:**
1. 6.00 to 7.00
2. 7.00 to 8.00
3. ≤ 6.00
4. ≤ 6.00
5. ≤ 6.00
6. ≤ 6.00
